Would you mind telling me the reported EC50 of each entry?
target: F508del V470 CFTR (Homo sapiens, UniProt P13569, DEL508-508); assay: FRT Ion Flux Assay of F508del CFTR Potentiation; settings: FRT cells expressing F508del V470 CFTR and halide-sensitive YFP, forskolin 20 uM, 30 min
Sequence (P13569 with tags, fused parts or gaps DEL508-508): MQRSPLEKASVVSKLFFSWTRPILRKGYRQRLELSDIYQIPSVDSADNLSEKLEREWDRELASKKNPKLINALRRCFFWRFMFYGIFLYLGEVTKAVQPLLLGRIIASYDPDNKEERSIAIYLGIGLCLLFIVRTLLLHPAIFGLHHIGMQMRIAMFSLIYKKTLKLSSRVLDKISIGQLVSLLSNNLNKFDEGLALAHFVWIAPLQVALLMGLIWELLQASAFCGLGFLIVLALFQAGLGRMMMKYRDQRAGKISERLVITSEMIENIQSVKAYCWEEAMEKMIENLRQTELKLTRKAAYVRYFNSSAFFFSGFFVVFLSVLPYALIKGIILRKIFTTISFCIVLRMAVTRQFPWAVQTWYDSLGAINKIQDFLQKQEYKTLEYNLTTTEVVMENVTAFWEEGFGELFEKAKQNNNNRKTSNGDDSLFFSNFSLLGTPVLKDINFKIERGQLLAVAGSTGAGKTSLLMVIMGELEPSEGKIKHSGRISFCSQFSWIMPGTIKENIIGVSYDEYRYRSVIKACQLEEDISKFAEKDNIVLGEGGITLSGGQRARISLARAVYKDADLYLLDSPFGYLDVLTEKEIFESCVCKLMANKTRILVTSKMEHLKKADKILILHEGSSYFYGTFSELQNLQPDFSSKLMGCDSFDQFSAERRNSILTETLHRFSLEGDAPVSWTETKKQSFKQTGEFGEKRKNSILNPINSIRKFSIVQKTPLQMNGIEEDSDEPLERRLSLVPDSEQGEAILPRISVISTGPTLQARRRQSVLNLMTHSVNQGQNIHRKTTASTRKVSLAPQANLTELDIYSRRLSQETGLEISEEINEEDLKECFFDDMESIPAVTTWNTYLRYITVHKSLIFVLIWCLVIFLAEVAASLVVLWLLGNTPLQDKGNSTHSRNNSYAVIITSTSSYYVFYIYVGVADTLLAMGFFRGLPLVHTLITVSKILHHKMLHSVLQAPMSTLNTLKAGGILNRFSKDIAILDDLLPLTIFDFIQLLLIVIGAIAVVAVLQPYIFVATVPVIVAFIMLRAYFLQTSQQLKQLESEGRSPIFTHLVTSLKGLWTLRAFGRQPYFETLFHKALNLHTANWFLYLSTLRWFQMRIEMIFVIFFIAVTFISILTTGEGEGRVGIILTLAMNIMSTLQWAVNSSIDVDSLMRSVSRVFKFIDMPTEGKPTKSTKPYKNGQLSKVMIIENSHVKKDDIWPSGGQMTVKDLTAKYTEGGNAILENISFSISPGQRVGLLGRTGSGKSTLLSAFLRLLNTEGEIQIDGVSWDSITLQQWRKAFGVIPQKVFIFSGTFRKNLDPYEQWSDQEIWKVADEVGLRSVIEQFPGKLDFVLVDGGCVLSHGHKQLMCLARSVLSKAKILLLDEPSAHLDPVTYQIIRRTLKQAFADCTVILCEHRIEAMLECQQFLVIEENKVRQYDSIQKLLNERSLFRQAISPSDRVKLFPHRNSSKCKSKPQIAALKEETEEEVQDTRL
Give the value in µM but do not write µM after it.

Query string: Which EC50 is listed for CC(c1cnn(-c2ccccc2F)c1)c1c(C#N)c(-c2cnc(C(F)(F)F)nc2)c2c(N)ncnn12 (single isomer, unassigned) [Example 12] ?
Result string: 0.0125

Query string: Which EC50 is listed for CCC(c1cn(-c2ccccc2F)nn1)c1c(C#N)c(-c2cnc(C(F)(F)F)nc2)c2c(N)ncnn12 (single isomer, unassigned) [Example 5] ?
Result string: 0.00213

Query string: Which EC50 is listed for CCC(c1cn(-c2ccc(F)c(F)c2)nn1)c1c(C#N)c(-c2cnc(C(F)(F)F)nc2)c2c(N)ncnn12 (single isomer, unassigned) ?
Result string: 0.0412

Query string: Which EC50 is listed for CCC(c1cnn(-c2ccccc2F)c1)n1nc(-c2cnc(C(F)(F)F)nc2)c2c(N)ncnc21 (single isomer, unassigned) [Example 87] ?
Result string: 0.00476

Query string: Which EC50 is listed for CCC(c1cn(-c2ccc(F)c(F)c2)nn1)c1cc(-c2cnc(C(F)(F)F)nc2)c2c(N)ncnn12 (single isomer, unassigned) [Example 64] ?
Result string: 0.479

Query string: Which EC50 is listed for CCC(c1cn(-c2cc(F)ccc2F)nn1)c1cc(-c2cnc(C(F)(F)F)nc2)c2c(N)ncnn12 (single isomer, unassigned) [Example 62] ?
Result string: 0.0176

Measured values drawn from patent US10131670B2 for this set.
